biological target: Glut1 mRNA expression in differentiated 3T3-L1 adipocytes (Mus musculus, UniProt P16092+Q99N32); assay: Glut1 Taqman assay; format: cell-based; conditions: differentiated 3T3-L1 adipocytes, 6 hrs; protein or antibody conjugate as labelled; read-out: Glut1 Taqman assay EC50
Sequence (P16092 22-822): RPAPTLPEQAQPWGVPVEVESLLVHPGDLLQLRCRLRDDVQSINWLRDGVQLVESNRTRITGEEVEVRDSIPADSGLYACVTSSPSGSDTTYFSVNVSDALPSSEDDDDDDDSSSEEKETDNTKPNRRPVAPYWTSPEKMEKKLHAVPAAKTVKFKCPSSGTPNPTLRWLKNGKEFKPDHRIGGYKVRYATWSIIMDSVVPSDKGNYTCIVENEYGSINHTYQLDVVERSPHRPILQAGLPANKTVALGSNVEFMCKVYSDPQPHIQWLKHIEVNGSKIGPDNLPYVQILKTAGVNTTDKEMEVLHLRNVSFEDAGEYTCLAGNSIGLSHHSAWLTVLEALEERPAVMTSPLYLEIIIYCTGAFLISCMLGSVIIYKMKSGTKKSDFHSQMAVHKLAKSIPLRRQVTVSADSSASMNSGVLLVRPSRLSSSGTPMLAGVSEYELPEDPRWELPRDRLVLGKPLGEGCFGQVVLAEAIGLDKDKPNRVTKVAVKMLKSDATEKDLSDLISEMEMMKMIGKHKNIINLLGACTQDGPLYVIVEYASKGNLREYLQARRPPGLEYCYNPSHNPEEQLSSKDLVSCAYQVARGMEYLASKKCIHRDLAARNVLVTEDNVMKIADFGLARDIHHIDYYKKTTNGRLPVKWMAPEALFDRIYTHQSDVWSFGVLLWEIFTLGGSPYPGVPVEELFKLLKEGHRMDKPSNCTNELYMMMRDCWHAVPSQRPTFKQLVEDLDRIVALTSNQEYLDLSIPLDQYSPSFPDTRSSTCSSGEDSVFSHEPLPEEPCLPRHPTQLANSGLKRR
Sequence (Q99N32 whole entry): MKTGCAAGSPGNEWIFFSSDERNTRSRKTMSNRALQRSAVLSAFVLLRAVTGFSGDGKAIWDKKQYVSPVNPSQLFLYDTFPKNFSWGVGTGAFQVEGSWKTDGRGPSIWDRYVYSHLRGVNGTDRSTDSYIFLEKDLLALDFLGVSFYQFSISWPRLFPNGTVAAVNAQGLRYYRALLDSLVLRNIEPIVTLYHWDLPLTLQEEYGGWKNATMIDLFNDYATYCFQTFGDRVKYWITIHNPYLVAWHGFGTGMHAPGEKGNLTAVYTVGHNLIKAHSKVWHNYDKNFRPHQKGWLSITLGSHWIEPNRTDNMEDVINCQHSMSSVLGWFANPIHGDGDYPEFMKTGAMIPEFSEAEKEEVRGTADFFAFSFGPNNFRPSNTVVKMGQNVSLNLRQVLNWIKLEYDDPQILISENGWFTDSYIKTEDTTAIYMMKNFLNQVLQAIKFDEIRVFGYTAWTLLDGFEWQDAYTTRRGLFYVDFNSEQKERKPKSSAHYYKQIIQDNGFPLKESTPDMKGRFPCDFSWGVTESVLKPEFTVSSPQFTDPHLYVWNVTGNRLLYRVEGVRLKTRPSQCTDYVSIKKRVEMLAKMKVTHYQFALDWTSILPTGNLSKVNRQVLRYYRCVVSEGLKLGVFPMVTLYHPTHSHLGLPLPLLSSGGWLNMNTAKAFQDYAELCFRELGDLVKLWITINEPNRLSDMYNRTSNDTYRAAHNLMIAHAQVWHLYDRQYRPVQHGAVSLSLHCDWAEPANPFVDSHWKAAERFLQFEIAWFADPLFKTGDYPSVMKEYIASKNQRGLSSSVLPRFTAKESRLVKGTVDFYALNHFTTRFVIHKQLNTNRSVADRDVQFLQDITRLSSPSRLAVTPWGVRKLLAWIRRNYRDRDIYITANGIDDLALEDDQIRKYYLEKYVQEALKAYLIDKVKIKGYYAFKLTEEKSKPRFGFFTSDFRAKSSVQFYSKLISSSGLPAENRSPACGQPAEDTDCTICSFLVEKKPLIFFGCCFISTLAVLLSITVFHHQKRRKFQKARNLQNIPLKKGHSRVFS
measurement_kind: log10 of EC50 (log10 of the value in nM)

| molecule | log10 of EC50 |
| --- | --- |
| FGF21ΔH-K56-K59R-K69R-K122: FGF21 lysine mutant, SEQ ID NO:21 (protein, listed as Homo sapiens) PIPDSSPLLQFGGQVRQRYLYTDDAQQTEAHLEIREDGTVGGAADQSPESLLQLRALRPGVIQILGVRTSRFLCQRPDGALYGSLHFDPEACSFRELLLEDGYNVYQSEAHGLPLHLPGNKSPHRDPAPRGPARFLPLPGLPPALPEPPGILAPQPPDVGSSDPLSMVGPSQGRSPSYAS | 0.41 |
| FGF21ΔH-D79C: FGF21 cysteine mutant, SEQ ID NO:12 (protein, listed as Homo sapiens) PIPDSSPLLQFGGQVRQRYLYTDDAQQTEAHLEIREDGTVGGAADQSPESLLQLKALKPGVIQILGVKTSRFLCQRPCGALYGSLHFDPEACSFRELLLEDGYNVYQSEAHGLPLHLPGNKSPHRDPAPRGPARFLPLPGLPPALPEPPGILAPQPPDVGSSDPLSMVGPSQGRSPSYAS | 0.32 |
| FGF21ΔH-Knull-P2: FGF21 lysine-null mutant, SEQ ID NO:22 (protein, listed as Homo sapiens) PIPDSSPLLQFGGQVRQRYLYTDDAQQTEAHLEIREDGTVGGAADQSPESLLQLRALRPGVIQILGVRTSRFLCQRPDGALYGSLHFDPEACSFRELLLEDGYNVYQSEAHGLPLHLPGNRSPHRDPAPRGPARFLPLPGLPPALPEPPGILAPQPPDVGSSDPLSMVGPSQGRSPSYAS | 0.08 |
| FGF21ΔH-Knull-S181K: FGF21 lysine-null mutant with S181K, SEQ ID NO:24 (protein, listed as Homo sapiens) PIPDSSPLLQFGGQVRQRYLYTDDAQQTEAHLEIREDGTVGGAADQSPESLLQLRALRPGVIQILGVRTSRFLCQRPDGALYGSLHFDPEACSFRELLLEDGYNVYQSEAHGLPLHLPGNRSPHRDPAPRGPARFLPLPGLPPALPEPPGILAPQPPDVGSSDPLSMVGPSQGRSPSYAK | 0.88 |
| FGF21ΔH-K56-K59R-K69R-K122R: FGF21 lysine mutant, SEQ ID NO:18 (protein, listed as Homo sapiens) PIPDSSPLLQFGGQVRQRYLYTDDAQQTEAHLEIREDGTVGGAADQSPESLLQLKALRPGVIQILGVRTSRFLCQRPDGALYGSLHFDPEACSFRELLLEDGYNVYQSEAHGLPLHLPGNRSPHRDPAPRGPARFLPLPGLPPALPEPPGILAPQPPDVGSSDPLSMVGPSQGRSPSYAS | -0.05 |
| Ab-L5-FGF21ΔH-Knull-P2: SEQ ID NO:22 combined at the N' terminus of P2 with L5 and conjugated with h38C2 (conjugate, listed as Homo sapiens, L5 linker at N-terminus, conjugated to h38C2 antibody) PIPDSSPLLQFGGQVRQRYLYTDDAQQTEAHLEIREDGTVGGAADQSPESLLQLRALRPGVIQILGVRTSRFLCQRPDGALYGSLHFDPEACSFRELLLEDGYNVYQSEAHGLPLHLPGNRSPHRDPAPRGPARFLPLPGLPPALPEPPGILAPQPPDVGSSDPLSMVGPSQGRSPSYAS | 1.22 |
| FGF21ΔH-K56R-K59R-K69-K122R: FGF21 lysine mutant, SEQ ID NO:20 (protein, listed as Homo sapiens) PIPDSSPLLQFGGQVRQRYLYTDDAQQTEAHLEIREDGTVGGAADQSPESLLQLRALRPGVIQILGVKTSRFLCQRPDGALYGSLHFDPEACSFRELLLEDGYNVYQSEAHGLPLHLPGNRSPHRDPAPRGPARFLPLPGLPPALPEPPGILAPQPPDVGSSDPLSMVGPSQGRSPSYAS | 0.11 |
| FGF21ΔH-K56R-K59-K69R-K122R: FGF21 lysine mutant, SEQ ID NO:19 (protein, listed as Homo sapiens) PIPDSSPLLQFGGQVRQRYLYTDDAQQTEAHLEIREDGTVGGAADQSPESLLQLRALKPGVIQILGVRTSRFLCQRPDGALYGSLHFDPEACSFRELLLEDGYNVYQSEAHGLPLHLPGNRSPHRDPAPRGPARFLPLPGLPPALPEPPGILAPQPPDVGSSDPLSMVGPSQGRSPSYAS | -0.22 |
